Property label: melting point

> print(dat)
                                   compound  property.label        reading
1                    COc1ccc(-n2cnnc2SC)cc1   melting point         172 °C
2  CC(C)OC(=O)Cn1c(-c2ccc(Cl)cc2)nc2cccnc21   melting point  118 to 120 °C
3  CC(=O)N(Cc1ccc(C(=O)O)cc1)c1ccc2c(c1)C(C)(C)CCC2(C)C   melting point  219 to 223 °C

Briefly, melting point measured for O=C1c2ccccc2C(=O)N1CCN1CCN(C(c2ccccc2)c2ccccn2)CC1 (stereo unspecified) : 114 to 117 °C

Briefly, melting point measured for "CS(=O)(=O)n1c2cc(O)c(O)cc2c2c(Br)cc(O)c(O)c21" : > 270 °C

###

Property label: melting point

> print(dat)
                           substance.smiles        reading
1  c1ccc(CN2CCN(c3n[nH]c4c3CCc3ccccc3-4)CC2)cc1  254 to 256 °C
2  CCCCc1ncc(/C=C(\Cc2cccs2)c2nnn[nH]2)n1Cc1ccccc1[N+](=O)[O-]  231 to 234 °C
3  Cc1ccc2nc(NCCCO)ccc2c1NC(=O)CC12CC3CC(CC(C3)C1)C2  168 to 174 °C

Briefly, melting point measured for "N#Cc1cc2ccc(Cl)cc2[nH]c1=O" : 306 to 309 °C

###

Property label: melting point

# count of solved cases: 3
> print(dat)
                                   molecule        reading
1  OC1CCCc2nc3sccc3c(NCc3ccccc3)c21 (stereo unspecified)  180 to 181 °C
2  Cc1cc2cc(C(=O)OCc3ccccc3)n(CC(=O)OC(C)(C)C)c2cc1C  133 to 134 °C
3  O=C1C[C@]2(c3ccccc3)CCCC[C@H]2C(=O)N1 (relative stereo)  180 to 182 °C

Briefly, melting point measured for "CCc1nc2c(N)nc3ccc(-c4cccnc4)cc3c2n1CC(C)C" : > 250 °C

Briefly, melting point measured for "C=CCOC(=O)c1c(-c2ccncc2)[nH]c(-c2ccncc2)c1C" : 224 °C

Briefly, melting point measured for CN1C(=O)CCC2(C)c3ccc(-c4ccccc4)cc3CCC12 (single isomer, unassigned; (+)) : 155 °C

###

Property label: melting point

Briefly, melting point measured for CC1OC(n2c(Cl)c(C#N)c3cc(Cl)c(Cl)cc32)C(O)C1O (stereo not drawn) : 227 to 228 °C

Briefly, melting point measured for "Cc1nnc(-c2cc3c(OC[C@@H](O)CN4CCC(c5ccc6ccccc6c5)CC4)cccc3[nH]2)o1" : 215 to 217 °C

Briefly, melting point measured for "COC(=O)c1sc2c(c1OC(C)C)CN(C(=O)OC(C)(C)C)CC2" : 76 to 81 °C

###

Property label: melting point

Briefly, melting point measured for "COC(=O)C(=O)NS(=O)(=O)Cc1ccccc1" : 117 to 122 °C

Briefly, melting point measured for "FC(F)(F)Oc1ccc(-c2coc3ccc(-c4nnc(S)o4)cc23)cc1" : 197 to 198 °C

Briefly, melting point measured for "BrCc1cccc2cccc(CBr)c12" : 131 to 132 °C

###

Items are presented alongside their recorded melting point.

# count of solved cases: 5
> print(dat)
                                   compound  property.label        reading
1    COc1cc2ncc(C#N)c(Nc3ccc(O)cc3O)c2cc1OC   melting point       > 250 °C
2  Cc1ccc(-n2c(-c3ccccc3)cc(Br)c2-c2ccccc2)cc1   melting point  201 to 202 °C
3  COc1cc2ncc(C#N)c(Nc3ccc4[nH]ccc4c3)c2cc1OC   melting point       > 250 °C
4  OC1(c2ccccc2)CSC2=NCN(Cc3ccccc3)CN21 (configuration not stated)   melting point    97 to 99 °C
5  CCCc1c(OCCCOc2ccccc2)ccc2c1OC(CCC(=O)O)(CCC(=O)O)CC2   melting point  130 to 132 °C

Briefly, melting point measured for "Cc1cnc(C)n2c1c(CCSC1=NCCN1)c1ccccc12" : 157 to 159 °C

###

Items are presented alongside their recorded melting point.

# count of solved cases: 4
> print(dat)
                                   compound  property.label        reading
1           N#CCC(=O)N(N)c1c(Cl)cc(Cl)cc1Cl   melting point  166 to 168 °C
2      O=c1c2cc(I)ccc2nc(Cl)n1-c1ccc(Cl)cc1   melting point  178 to 180 °C
3  CCOC(=O)c1nn(-c2ccccc2Br)c(=O)c2c(N)scc12   melting point  203 to 205 °C
4  CC(C)COC(=O)c1ccc(OCC(=NO)c2ccc3c(c2)C(C)(C)CCC3(C)C)cc1O   melting point          96 °C

Briefly, melting point measured for "NC(=O)c1cc2cc(Cl)ccc2o1" : 200 to 202 °C

Briefly, melting point measured for "O=C(O)CN1C(=O)c2cccc3c(C(=O)c4ccccc4)ccc(c23)C1=O" : 310 to 312 °C

Briefly, melting point measured for "CC[C@H](C)[C@H](NS(=O)(=O)c1cccc2ccccc12)C(=O)N[C@@H](Cc1c[nH]c2ccccc12)C(=O)O" : 167 to 168 °C

Briefly, melting point measured for "CCOC(=O)c1nnc2n1-c1sc(Cl)cc1C(c1ccccc1Cl)=NC2" : 180 to 182 °C

Briefly, melting point measured for "Fc1cccc(F)c1COc1cccnc1NC(=S)Nc1ccccc1" : 132 to 133 °C

###

Items are presented alongside their recorded melting point.

# count of solved cases: 2
> print(dat)
                      compound      reading
1    O=C1CCC(=O)N1CC#CCN1CCCC1  93 to 94 °C
2  O=c1cc2c(n[nH]1)-c1ccccc1C2       295 °C

Briefly, melting point measured for CCOC(=O)N1CCCC(Nc2nc3ccccc3[nH]2)CC1 (stereo not drawn) : 175 °C

###

Items are presented alongside their recorded melting point.

# count of solved cases: 5
> print(dat)
                                   molecule        reading
1  Cc1ccc(S(=O)(=O)N2CCCC2c2ccc(F)c(F)c2)cc1 (racemic)         127 °C
2           COC(=O)n1nnnc1-c1cnc2ccccn2c1=O  182 to 183 °C
3     CC(C)c1[nH][nH]c(=O)c1Cc1ccc2ccccc2c1  143 to 145 °C
4        CCCc1c(CC)sc2[nH]c(=O)c(=O)[nH]c12  295 to 298 °C
5  Cc1ccc(C(=O)Cn2c(-n3ncnc3N)nc3ccccc32)cc1C  190 to 193 °C

Briefly, melting point measured for CC(=S)OC(c1ccccc1)C1(C)OCCO1 (stereo not drawn) : 49 to 52 °C

Briefly, melting point measured for "CC(=O)N[C@@H](CC(C)C)C(=O)N[C@@H](C(C)C)[C@@H](O)c1c(-c2ccccc2)c1=O" : 94 to 105 °C

Briefly, melting point measured for CC(C)C(NC(=O)Cn1cccc(NC(=O)CCc2ccccc2)c1=O)C(=O)C(F)(F)F (stereo not drawn) : 154 to 155 °C

###

Items are presented alongside their recorded melting point.
Just the number please, in °C, no unit attached.

Briefly, melting point measured for "Cc1ccc2c(c1)C(=O)c1ccc(-c3nnn[nH]3)cc1S2(=O)=O" : 267

Briefly, melting point measured for "Cc1ccc(NC(=O)C(C)C)o1" : 78

###

Property label: melting point

> print(dat)
                           compound  property.label      reading
1  CNC(=O)C(=O)CCCCCCSc1nc2ccccc2s1   melting point  83 to 84 °C

Briefly, melting point measured for "N#CCCCNc1cccc(/C=C/c2nc3ccccc3s2)c1" : 97 to 98 °C

Briefly, melting point measured for O=C1CCC(c2ccc(Cl)c(Cl)c2)O1 (stereo not drawn) : 54 to 55 °C

Briefly, melting point measured for "CN1CCN(c2cccc3c2C[C@H](NC(=O)c2ccc(Cc4ccccc4)cc2)CC3)CC1" : 191 to 192 °C

Briefly, melting point measured for CCOC1CCC(=O)N1S(=O)(=O)C=Cc1ccc(OC)cc1 (stereo not drawn) : 134 to 136 °C

Briefly, melting point measured for CC1=C(c2ccc(OCC(=O)O)c(Cl)c2Cl)CC(C)CC1=O (stereo not drawn) : 170 to 173 °C

Briefly, melting point measured for "O=C(Cn1c(-c2ccc(Br)cc2)nc2cccnc21)Nc1ccccn1" : 192 to 195 °C

Briefly, melting point measured for "Oc1ncc(-c2ccccc2)s1" : 202 to 204 °C

Briefly, melting point measured for CCCCCC1CCc2cc(C(=O)Oc3ccc(C#N)cc3)ccc2C1 (stereo not drawn) : 72.7 to 73.3 °C

Briefly, melting point measured for CC(=O)Nc1ccc(OCC2CO2)c(C(=O)Nc2cccc3[nH]ccc23)c1 (stereo not drawn) : 230 °C

Briefly, melting point measured for "CC(C)Cn1c(CCl)c(-c2ccccc2)c2cc(Br)ccc2c1=O" : 145 to 146 °C

Briefly, melting point measured for "CC1(C)OC(=O)c2c(cccc2-c2ccccc2)O1" : 158 to 163 °C

Briefly, melting point measured for "COc1c(N2CCNCC2)c(F)cc2c(=O)c(C(=O)O)cn(C3CC3)c12" : 177 to 178 °C

Briefly, melting point measured for "O=C(O)c1ccc(N2CCN(c3ccncc3)CC2)cc1" : > 300 °C

Briefly, melting point measured for "CCc1nc(-c2cccc(C)c2)c(-c2ccnc(N(C)C(=O)Cc3ccccc3)c2)s1" : 75 to 76 °C

Briefly, melting point measured for "C[C@]12CCC(=O)N[C@@H]1CCc1cc(Sc3ccccc3F)ccc12" : 196 to 198 °C

Briefly, melting point measured for "O=[N+]([O-])c1ccccc1NN=Cc1ncc(C(F)(F)F)cc1Cl" : 127 to 135 °C

Briefly, melting point measured for "O=C(Nc1ccccc1)c1ccc(CSc2ccc(O)cc2)cc1" : 220 to 222 °C

Briefly, melting point measured for "CCOC(=O)N1CC(=O)NC(=O)N1Cc1ccc(Cl)cc1" : 120 °C

Briefly, melting point measured for "Cc1c(-c2cc(C(=O)O)c(Cl)cc2F)nn(C)c1C(F)(F)F" : 155 °C
